tested on: HCV replicon 1AY93H; experiment: microbe, parasite or virus in culture; type: cell-based, Hepatitis C virus (HCV); conditions: read-out: 1A Y93H IC50; HCV replicon 1A Y93H; Replicon Assay A
MEASUREMENT_KIND: IC50
Express your answer as a number followed by its unit.

INPUT: So what does the record say about IC50 for COC(=O)NC(C(=O)N1CCC[C@H]1c1ncc(-c2ccc3c(c2)cc2n3C(c3cc4ccccc4s3)Oc3cc(-c4cnc([C@@H]5CCCN5C(=O)[C@@H](NC(=O)OC)C(C)C)[nH]4)cc(F)c3-2)[nH]1)C1C[C@@H](C)O[C@@H](C)C1 (single isomer, unassigned) [Compound 641] ?
OUTPUT: 7.9 pM

INPUT: Next molecule up: COC(=O)N[C@H](C(=O)N1CCC[C@H]1c1ncc(-c2cc(F)c3c(c2)OC(c2scc4c2OCCO4)n2c-3cc3cc(-c4cnc([C@@H]5C[C@H](F)CN5C(=O)[C@@H](NC(=O)OC)C(C)C)[nH]4)ccc32)[nH]1)C(C)C (single isomer, unassigned)
OUTPUT: 3060 pM

INPUT: Next molecule up: COC(=O)N[C@H](C(=O)N1CCC[C@H]1c1nc(-c2ccc3c(c2)OC(c2ccc(C)s2)n2c-3cc3cc(-c4c[nH]c([C@@H]5NCCN5C(=O)[C@@H](NC(=O)OC)C(C)C)n4)ccc32)c[nH]1)C(C)C (single isomer, unassigned) [Compound 701]
OUTPUT: 85 pM

INPUT: Next molecule up: COC(=O)N[C@H](C(=O)N1CCC[C@H]1c1ncc(-c2cc(F)c3c(c2)OC(c2cc(C)c(C)s2)n2c-3cc3cc(-c4cnc([C@@H]5C[C@H]6C[C@H]6N5C(=O)[C@@H](NC(=O)OC)C(C)C)[nH]4)ccc32)[nH]1)C(C)C (single isomer, unassigned) [Compound 507]
OUTPUT: 89.6 pM
